Reference source: patent US11274101B2

Molecular target: His-hMAGL (recombinant polyhistidine tagged human MAGL protein) (Homo sapiens, UniProt Q99685)
Construct: made in house; host or cells: E. coli BL21(DE3)
Sequence (Q99685 1-303): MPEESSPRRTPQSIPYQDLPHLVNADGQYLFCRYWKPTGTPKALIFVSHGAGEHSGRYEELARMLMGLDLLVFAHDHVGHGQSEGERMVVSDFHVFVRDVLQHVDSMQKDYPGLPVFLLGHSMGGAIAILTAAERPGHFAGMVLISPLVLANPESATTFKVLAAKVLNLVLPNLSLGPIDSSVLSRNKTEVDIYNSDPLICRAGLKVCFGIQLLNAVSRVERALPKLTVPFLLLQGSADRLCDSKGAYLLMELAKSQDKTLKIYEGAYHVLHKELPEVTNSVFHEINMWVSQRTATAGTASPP
Assay: Measurement of MAGL inhibitory activity (arachidonic acid production from 2-arachidonylglycerol, RapidFire-mass spectrometry)
Format: biochemical
Settings: test compound 10 μM; MAGL inhibitory rate
Measured quantity: inhibition at 10 µM
The number alone won't do; follow it with the unit.

Some solved entries appear below for comparison.
O=C1NC2(CO1)CN(C(=O)O[C@H]1C[C@@H](COCc3ccc(C(F)(F)F)cc3F)C1)C2 | 100%
Cc1ccc(O[C@H]2C[C@@H](OC(=O)N3CC4(COC(=O)N4)C3)C2)cc1 | 101%
O=C1NC2(CCN(C(=O)O[C@H]3C[C@@H](COc4ccc(F)c(F)c4F)C3)C2)CO1 (some centres unmarked) | 100%
O=C1NC2(CO1)CN(C(=O)O[C@H]1C[C@H](Oc3ccc(C(F)(F)F)cc3F)C1)C2 | 99%
C[C@]1(Oc2ccc(F)cc2Cl)C[C@@H](OC(=O)N2CC3(COC(=O)N3)C2)C1 | 100%
O=C1NC2(CO1)CN(C(=O)OC[C@H]1C[C@H](Oc3c(F)cc(F)cc3F)C1)C2 | 100%
O=C1NC2(CO1)CN(C(=O)O[C@H]1C[C@@H](COCc3cc(F)c(F)cc3F)C1)C2 | 100%
O=C1NC2(CO1)CN(C(=O)O[C@H]1C[C@@H](OCc3ccc(F)c(F)c3)C1)C2 | 99%
O=C1NC2(CO1)CN(C(=O)O[C@H]1C[C@@H](Oc3ccccc3Cl)C1)C2 | 100%
O=C1NC2(CO1)CN(C(=O)O[C@H]1C[C@@H](COc3c(F)cc(F)cc3F)C1)C2 | 102%

Next molecule, please.
Look up inhibition at 10 µM: `Cc1cc(COC[C@H]2C[C@@H](OC(=O)N3CC4(COC(=O)N4)C3)C2)ccc1Cl`
100%

====

Molecular target: His-hMAGL (recombinant polyhistidine tagged human MAGL protein) (Homo sapiens, UniProt Q99685)
Construct: made in house; host or cells: E. coli BL21(DE3)
Assay: Measurement of MAGL inhibitory activity (arachidonic acid production from 2-arachidonylglycerol, RapidFire-mass spectrometry)
Type: biochemical
Conditions: test compound 10 μM; MAGL inhibitory rate
In this section, each of the compounds is paired with its reported inhibition at 10 µM.
Respond numerically; units are % and should not be typed.

Some solved entries appear below for comparison.
O=C1NC2(CO1)CN(C(=O)O[C@H]1C[C@@H](COCc3ccc(F)cc3Cl)C1)C2 | 100
Cc1cc(F)ccc1O[C@H]1C[C@@H](OC(=O)N2CC3(COC(=O)N3)C2)C1 | 100
O=C1NC2(CO1)CN(C(=O)O[C@H]1C[C@@H](COc3ccc(C(F)(F)F)cc3F)C1)C2 | 98

Look up inhibition at 10 µM: `Cc1cc(F)ccc1OC[C@H]1C[C@@H](OC(=O)N2CC3(COC(=O)N3)C2)C1`
102

Please give the result for `O=C1NC2(CO1)CN(C(=O)O[C@H]1C[C@@H](COc3ccc(F)cc3Cl)C1)C2` too.
98

Please give the result for `O=C1NC2(CO1)CN(C(=O)O[C@H]1C[C@@H](Oc3ccc(Cl)cc3)C1)C2` too.
100

Please give the result for `O=C1NC2(CO1)CN(C(=O)O[C@H]1CC[C@@H](Oc3ccc(C(F)(F)F)cc3F)CC1)C2` too.
102

Please give the result for `O=C1NC2(CO1)CN(C(=O)O[C@H]1C[C@@H](COc3ccc(F)c(F)c3F)C1)C2` too.
100
